- Test system: naïve Balb/C mice
- assay-name: Luciferase liver model, aminolipid potency comparison (Example 2)
- Assay type: in vivo, mouse
- reported-conditions: intravenously, 0.5 mg/kg total mRNA, six hours following injection
The following molecules are listed with their measured Luciferase protein in ng per g of liver values.
recorded-metric: Luciferase protein in ng per g of liver

> print(dat)
                                   molecule                          recorded.metric       recorded.measurement
1  CCC/C=C\CCC(CC/C=C\CCC)CC(OC(=O)CCCCN(C)C)C(CC/C=C\CCC)CC/C=C\CCC (centres unmarked)  Luciferase protein in ng per g of liver  1388.39 ng per g of liver
2  CCCCC/C=C\C/C=C\CCCCCCCCC(OC(=O)CCCCN(C)CC)C(O)(CCCCCCCC/C=C\C/C=C\CCCCC)CCCCCCCC/C=C\C/C=C\CCCCC (centres unmarked)  Luciferase protein in ng per g of liver   203.47 ng per g of liver
3  CCCCC/C=C\C/C=C\CCCCCCCCC(CCCCCCCC/C=C\C/C=C\CCCCC)OCCCN(C)C  Luciferase protein in ng per g of liver   264.90 ng per g of liver
4  CCCCC/C=C\C/C=C\CCCCCCCCC(CCCCCCCC/C=C\C/C=C\CCCCC)OC(=O)CCCN(C)C  Luciferase protein in ng per g of liver   369.85 ng per g of liver
5  CCCCC/C=C\CCCC(CCC/C=C\CCCCC)C(CCC/C=C\CCCCC)OC(=O)CCCN(C)C (centres unmarked)  Luciferase protein in ng per g of liver   968.83 ng per g of liver

----------
- assay-name: Formulability: LNP particle size, polydispersity and mRNA encapsulation (Example 2)
- Type: physicochemical
- reported-conditions: mLuc LNP with the aminolipid at 54.6 mol %; 12.6 mM lipid stock
Please use criterion met whenever PDI (polydispersity index) is not below 0.1, and criterion not met whenever it is.

> print(dat)
                                   compound   class.assignment
1  CCC/C=C\CCC(CC/C=C\CCC)CC(OC(=O)CCCCN(C)C)C(CC/C=C\CCC)CC/C=C\CCC (centres unmarked) [Compound 18]  criterion not met
2  CCCCC/C=C\CCCC(CCC/C=C\CCCCC)C(CCC/C=C\CCCCC)OC(=O)CCCN(C)C (centres unmarked) [Compound 9]  criterion not met
3  CCCCC/C=C\C/C=C\CCCCCCCCC(CCCCCCCC/C=C\C/C=C\CCCCC)OCCCN(C)C [Compound 8]      criterion met
4  CCCCC/C=C\C/C=C\CCCCCCCCC(CCCCCCCC/C=C\C/C=C\CCCCC)OC(=O)CCCN(C)C [Compound 7]      criterion met

----------
The following compounds are listed with their measured % Encaps (Percentage Encapsulation) values.
- assay-name: Formulability: LNP particle size, polydispersity and mRNA encapsulation (Example 2)
- Type: physicochemical
- reported-conditions: mLuc LNP with the aminolipid at 54.6 mol %; 12.6 mM lipid stock
recorded-metric: % Encaps (Percentage Encapsulation) (%)

> print(dat)
                                   compound  unit.label  recorded.measurement
1  CCCCC/C=C\C/C=C\CCCCCCCCC(CCCCCCCC/C=C\C/C=C\CCCCC)OC(=O)CCCN(C)C [Compound 7]           %                    50
2  CCCCC/C=C\CCCC(CCC/C=C\CCCCC)C(CCC/C=C\CCCCC)OC(=O)CCCN(C)C (centres unmarked) [Compound 9]           %                    62
3  CCCCC/C=C\CCCC(CCC/C=C\CCCCC)C(CC/C=C\CCCCC)OC(=O)CCCCN(C)C (centres unmarked) [Compound 19]           %                    78
4  CCC/C=C\CCC(CC/C=C\CCC)CC(OC(=O)CCCCN(C)C)C(CC/C=C\CCC)CC/C=C\CCC (centres unmarked) [Compound 18]           %                    88
5  CCCCC/C=C\C/C=C\CCCCCCCCC(CCCCCCCC/C=C\C/C=C\CCCCC)OCCCN(C)C [Compound 8]           %                    57

----------
- assay-name: Formulability: LNP particle size, polydispersity and mRNA encapsulation (Example 2)
- Type: physicochemical
- reported-conditions: mLuc LNP with the aminolipid at 54.6 mol %; 12.6 mM lipid stock
recorded-metric: Zavg (average lipid particle diameter) (nm)

> print(dat)
                                   compound  unit.label  recorded.measurement
1  CCCCC/C=C\C/C=C\CCCCCCCCC(CCCCCCCC/C=C\C/C=C\CCCCC)OC(=O)CCCN(C)C [Compound 7]          nm                   158
2  CCCCC/C=C\CCCC(CCC/C=C\CCCCC)C(CC/C=C\CCCCC)OC(=O)CCCCN(C)C (centres unmarked) [Compound 19]          nm                   138
3  CCC/C=C\CCC(CC/C=C\CCC)CC(OC(=O)CCCCN(C)C)C(CC/C=C\CCC)CC/C=C\CCC (centres unmarked) [Compound 18]          nm                   117
4  CCCCC/C=C\CCCC(CCC/C=C\CCCCC)C(CCC/C=C\CCCCC)OC(=O)CCCN(C)C (centres unmarked) [Compound 9]          nm                    95
5  CCCCC/C=C\C/C=C\CCCCCCCCC(CCCCCCCC/C=C\C/C=C\CCCCC)OCCCN(C)C [Compound 8]          nm                   144
